- System Tested: T1, IL-18 binding protein (IL-18BP) (UniProt O95998 31-194)
- T1 sequence (looked up): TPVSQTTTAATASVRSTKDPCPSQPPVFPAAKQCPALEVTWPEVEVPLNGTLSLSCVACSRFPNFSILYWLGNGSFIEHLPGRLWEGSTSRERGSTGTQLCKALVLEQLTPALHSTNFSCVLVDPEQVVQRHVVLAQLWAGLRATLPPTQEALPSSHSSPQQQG
- Assay Comment: cell-based or functional assay
Observed Property: Ratio (-BP/+BP), DF-1000005

>>> result("IL-18 variant G3P, E6V, K53A, D54W, S55P, T63S, N91L, R104K (ligand) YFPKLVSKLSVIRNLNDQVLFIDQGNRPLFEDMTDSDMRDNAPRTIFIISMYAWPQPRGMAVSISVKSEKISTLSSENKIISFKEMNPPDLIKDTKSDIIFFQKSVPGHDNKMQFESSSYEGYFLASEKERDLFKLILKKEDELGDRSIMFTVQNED")
0.98
>>> result("IL-18 variant G3P, E6S, K53R, D54Y, S55P, T63I, N91K (ligand) YFPKLSSKLSVIRNLNDQVLFIDQGNRPLFEDMTDSDMRDNAPRTIFIISMYRYPQPRGMAVIISVKSEKISTLSSENKIISFKEMNPPDKIKDTKSDIIFFQRSVPGHDNKMQFESSSYEGYFLASEKERDLFKLILKKEDELGDRSIMFTVQNED")
1.07
>>> result("IL-18 variant G3P, E6G, D54P, S55W, N91E, R104K (ligand) YFPKLGSKLSVIRNLNDQVLFIDQGNRPLFEDMTDSDMRDNAPRTIFIISMYKPWQPRGMAVTISVKSEKISTLSSENKIISFKEMNPPDEIKDTKSDIIFFQKSVPGHDNKMQFESSSYEGYFLASEKERDLFKLILKKEDELGDRSIMFTVQNED")
0.98

Reference for the values: patent US20240182536A1
